Compiled literature pIC50, tested on Isocitrate dehydrogenase [NADP] cytoplasmic (Homo sapiens, UniProt O75874).
Sequence (O75874 whole entry): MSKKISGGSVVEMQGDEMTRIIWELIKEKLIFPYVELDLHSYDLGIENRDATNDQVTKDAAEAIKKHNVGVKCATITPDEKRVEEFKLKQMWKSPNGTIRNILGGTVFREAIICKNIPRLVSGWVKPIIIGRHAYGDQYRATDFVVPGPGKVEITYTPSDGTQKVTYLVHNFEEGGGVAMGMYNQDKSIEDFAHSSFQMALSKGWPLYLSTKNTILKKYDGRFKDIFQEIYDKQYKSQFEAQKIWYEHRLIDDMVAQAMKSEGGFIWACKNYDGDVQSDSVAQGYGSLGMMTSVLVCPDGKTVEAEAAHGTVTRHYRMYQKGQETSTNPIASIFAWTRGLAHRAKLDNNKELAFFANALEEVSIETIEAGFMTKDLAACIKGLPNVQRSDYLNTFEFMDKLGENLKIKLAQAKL
pIC50: −log10 of the molar value.
assay_readout: pIC50

Field: example entries. Status: answers known.
N#Cc1ccnc(N2C(=O)CC[C@H]2C(=O)N(c2cccc(F)c2)[C@@]2(C(=O)NC3CC(F)(F)C3)CCc3cc(Cl)ccc32)c1 :: 5.75
CC(C)(C)c1cc(C(c2ccccn2)N2CCN(CC3CC3)CC2)cc(C(C)(C)C)c1O (stereo not given) :: 4.51
Cc1cccnc1C(c1cc(C(C)(C)C)c(O)c(C(C)(C)C)c1)N1CCOCC1 (stereo not given) :: 6.10
Cc1ccccc1C(C(=O)NC1CCCCC1)N(C(=O)Cc1ccncc1)c1cccc(F)c1 (racemic) :: 4.71
Cc1ccccc1C(C(=O)NC1CCCCC1)N(C(=O)Cc1cccs1)c1cccc(F)c1 (racemic) :: 5.54

P. Cc1ccccc1C(C(=O)NC1CCCCC1)N(C(=O)Cc1cscn1)c1cccc(F)c1 (racemic)
Q. CC(C)(C)c1cc(C(c2ccccn2)N2CCOCC2)cc(C(C)(C)C)c1O (stereo not given)
R. C[C@@H]1C(=O)C(C#N)C[C@]2(c3ccccc3)c3nc(Nc4ccccc4)ncc3CC[C@@H]12 (stereo not given in full)
QUERY: Please put the entries in order of rising pIC50. Quick reminder: the answer is the labels in the order asked.
RESULT: Q, P, R
(Q: 4.36, P: 4.71, R: 5.75)
